# reported self-cleavage; entries follow
B1: Twister Ribozyme (parent)
chain: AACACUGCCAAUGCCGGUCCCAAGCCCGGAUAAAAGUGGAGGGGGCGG

Variants of: B1
Assay comment: self-cleavage, relative activity (ratio to wild type); higher = more cleavage; co-transcriptional

| Sequence code | self-cleavage |
| --- | --- |
| AACACUGCCAAUGCCCGUCCCAAGCCCGGAUAAAAGUGGAGGGGCCGG [G16C G45C] | 0.249 |
| AACUCUGCCAAUGCCGUUCCCAAGCCCGGAUAAAAGUGGAGGGGGCGG [A4U G17U] | 0.0471 |
| AACACUGCCAAUGCCGUUCCCAAGCCCGGAUAAAAGUGGAGGGGGGGG [G17U C46G] | 0.301 |
| AACACUGCCAAUGCAGGUCGCAAGCCCGGAUAAAAGUGGAGGGGGCGG [C15A C20G] | 0.0632 |
| AACACUACCAACGCCGGUCCCAAGCCCGGAUAAAAGUGGAGGGGGCGG [G7A U12C] | 0.455 |
| AACACUGCCAAUGCCGGUCGCAAGCCCGGAUAAAAGUGGAGGGGGCUG [C20G G47U] | 0.131 |
| AACACUGCCAAUGCCGGUCCCAAGCCCGGAUAAAUGUGGAAGGGGCGG [A35U G41A] | 0.678 |
| AAAACUGCCAAUGCCGGUCCCAAGCCCGGAUAAAAGUUGAGGGGGCGG [C3A G38U] | 0.191 |
| AACACUGCCAAUGCCUGUCCCAAGCCCGGAUAAAAGUGGAGGUGGCGG [G16U G43U] | 0.313 |
| AACCCUGCCAAUGCCGGUCCCAAGCACGGAUAAAAGUGGAGGGGGCGG [A4C C26A] | 0.0425 |
| AACACUGCCAAUGCCGGUUCCAAGCCCGGAUAAAAGUGGAGGGGGCGG [C19U] | 1.05 |
| AACACUGCCAAUGCCGGUCCAAAGCGCGGAUAAAAGUGGAGGGGGCGG [C21A C26G] | 0.0786 |
| AACACUGCCAAUGCCGGUCCGAAGCCCGGAUUAAAGUGGAGGGGGCGG [C21G A32U] | 0.196 |
| AACCCUGCCAAUGCCGGUCCCAUGCCCGGAUAAAAGUGGAGGGGGCGG [A4C A23U] | 0.0688 |
| CACACUGCCAAUGCCGGUCCCAAGCCCGGAUAAAAGUGGAGGGGGCGG [A1C] | 0.175 |
| AACACUGCCAAUGCCCGUCCCAAGCCCGGAUAAAAUUGGAGGGGGCGG [G16C G36U] | 0.113 |
| AAGACUGCCCAUGCCGGUCCCAAGCCCGGAUAAAAGUGGAGGGGGCGG [C3G A10C] | 0.28 |
| AACACUGCCAAUGCCGGUACCAAGCCCGGAUAAAAGUGGAGGUGGCGG [C19A G43U] | 0.732 |
| AAAACUACCAAUGCCGGUCCCAAGCCCGGAUAAAAGUGGAGGGGGCGG [C3A G7A] | 0.0709 |
| AACAGUGCCAAUGCCUGUCCCAAGCCCGGAUAAAAGUGGAGGGGGCGG [C5G G16U] | 0.0938 |
| AACACUGCCGAUGCCGGUCCCAAGCCCGGAUAAAAGUGGAGGGGGCCG [A10G G47C] | 0.809 |
| AACACUGCCAAUGCCGGUCCCAAGCCCCGAUAAAAGUGGAGGGGGCGC [G28C G48C] | 0.83 |
| AACAUUGCCAAUGCAGGUCCCAAGCCCGGAUAAAAGUGGAGGGGGCGG [C5U C15A] | 0.385 |
| AACACUGCCAAUGCCGGUGCCAAGCCCGGAUAAAAGGGGAGGGGGCGG [C19G U37G] | 0.0722 |
| AACACUGCCGAUGCCGCUCCCAAGCCCGGAUAAAAGUGGAGGGGGCGG [A10G G17C] | 0.217 |
| AACACUGCCAGUGCCGGUCCCAAGCCCGGAUAAAAGUGGAGGGUGCGG [A11G G44U] | 0.876 |
| AACACUGCCAAUGCCGGUCCCAAGCCCGAAUAAAAUUGGAGGGGGCGG [G29A G36U] | 0.265 |
| AACACUGCCAAUGCCGGUCCCAAGCCCGGAAAAAAUUGGAGGGGGCGG [U31A G36U] | 0.292 |
| AACACUGCCAAUGCUGGUCCCAAGCCCGGAUCAAAGUGGAGGGGGCGG [C15U A32C] | 0.678 |
| AACACUGCUAAUGCCGGUCCCAAGCCCGGAUAAGAGUGGAGGGGGCGG [C9U A34G] | 0.3 |
| AACACUGCCAAUGCCGGUCCCAAGCCCGGCUAAAAGAGGAGGGGGCGG [A30C U37A] | 0.231 |
| AACACGGCGAAUGCCGGUCCCAAGCCCGGAUAAAAGUGGAGGGGGCGG [U6G C9G] | 0.171 |
| AACACUGCGAAUGCUGGUCCCAAGCCCGGAUAAAAGUGGAGGGGGCGG [C9G C15U] | 0.479 |
| AACACUGCGAAUUCCGGUCCCAAGCCCGGAUAAAAGUGGAGGGGGCGG [C9G G13U] | 0.933 |
| AACACUGCCAAUGCCGGUCCGAAGCCCGGAUAAAAGUGGAGCGGGCGG [C21G G42C] | 0.13 |
| AACAGUGCCAAUGCCGGUCCCAAGUCCGGAUAAAAGUGGAGGGGGCGG [C5G C25U] | 0.411 |
| AACACUGCCAAUGCCGGUCCCAAGCCCGGAUAAAAGUGGAGGGUGCGC [G44U G48C] | 0.427 |
| AACACUGCCAAUGCCGGUCCCAAGCCCGGAUAAGAGUGGAGGGGCCGG [A34G G45C] | 0.274 |
| AACACUGCCAAUGUCGGUCCCAAGCCCGGAUAAAAGUGCAGGGGGCGG [C14U G39C] | 0.198 |
| AACACUGCCAAUGCCGGUCCCAAGCCCACAUAAAAGUGGAGGGGGCGG [G28A G29C] | 0.71 |
| ACCACUGCCACUGCCGGUCCCAAGCCCGGAUAAAAGUGGAGGGGGCGG [A2C A11C] | 0.0419 |
| AACACUGCCAAUGCCGGUCCCAUGCCAGGAUAAAAGUGGAGGGGGCGG [A23U C27A] | 0.0759 |
| AACACUGCCAAUGCCGGUCCCAAGCCCGCAUAAAAGUGCAGGGGGCGG [G29C G39C] | 0.14 |
| AACACUGACAAUGCCGGUCCCAAGCCUGGAUAAAAGUGGAGGGGGCGG [C8A C27U] | 0.101 |
| AACACUGCAAAUGCCGGUACCAAGCCCGGAUAAAAGUGGAGGGGGCGG [C9A C19A] | 0.089 |
| AACACUGCCAAUGCCGGUCCUAAGCCCGGAUAAAAGUGGAAGGGGCGG [C21U G41A] | 0.641 |
| AACACUGCCAAUGCCGGUCCCAAGCCAGGAUAAAAGUGGAGGUGGCGG [C27A G43U] | 0.122 |
| AACACUGCUAAUGCCGGUCCCAAGCCCGGAUAAAAGUGGAGCGGGCGG [C9U G42C] | 0.193 |
| AACAAUGCCAAUGCCGGUCCCAAGCCCGGAUAAGAGUGGAGGGGGCGG [C5A A34G] | 0.41 |
| AACACUGCCAAUGCCGGUCCCAAGCCCGGAUAAAAGUGGAGGGGUAGG [G45U C46A] | 0.595 |
| AACACUGCCAAUGCCGGUCCCAAGCCCGGAUAAAACUGGAGGGGGCGA [G36C G48A] | 0.422 |
| AACACUGCCAAUGCCGGUCCCAAGCCCGGAUAAAAAUGGAGGGGGCGA [G36A G48A] | 0.639 |
| AACACUGCCAAUGCCGGUCACAAGCCCGGAUAAAAGUGGAGGGGGGGG [C20A C46G] | 0.0871 |
| AACACUGCCACUGCCGGUCCCAAGCCCGGAUAAAAGUGGAGGGGGCGG [A11C] | 0.906 |
| AACACUGCCAAUGCCGGUUCCAGGCCCGGAUAAAAGUGGAGGGGGCGG [C19U A23G] | 0.219 |
| AACACUGCCAAUGCCGGUCCCAAGCCCGGAUAAACGGGGAGGGGGCGG [A35C U37G] | 0.703 |
| AACAAUGCCAAUGCCGGUCCCAAGCCUGGAUAAAAGUGGAGGGGGCGG [C5A C27U] | 0.249 |
| AACACUGCCAAUCCCGGUCCCAAGCCCGGAUAAAAGAGGAGGGGGCGG [G13C U37A] | 0.075 |
| AACACUGCCAAUGCCGGACCCAAACCCGGAUAAAAGUGGAGGGGGCGG [U18A G24A] | 0.0868 |
| AACGCUGCCAAUGCCGGUCCCAAGCCCGGAUAAAAGUGGAGAGGGCGG [A4G G42A] | 0.289 |
| AACACUGCCAAUGCCGGUCCCAAGCCCGGAUAGAAGUGGUGGGGGCGG [A33G A40U] | 0.184 |
| AACACUGUCAGUGCCGGUCCCAAGCCCGGAUAAAAGUGGAGGGGGCGG [C8U A11G] | 0.551 |
| AACACUGCCAUUGUCGGUCCCAAGCCCGGAUAAAAGUGGAGGGGGCGG [A11U C14U] | 1.13 |
| AACACUGGCAAUGCCGGUCCCAAGCCGGGAUAAAAGUGGAGGGGGCGG [C8G C27G] | 0.0686 |
| AACACUGCCAAUGGCGGUCCCAAGCCCGGAUAAAUGUGGAGGGGGCGG [C14G A35U] | 0.125 |
| AACACUGCCAAUGCCGGUCCCAAGCCCGGAUAAAAGUGGAGGUGGCGC [G43U G48C] | 0.205 |
| AACACUGCCAACGCCGGUCCCAAGCCCGGAUGAAAGUGGAGGGGGCGG [U12C A32G] | 1.24 |
| AACACUGACAAUGCCGGUCCCAAGCCCGGAUAAAUGUGGAGGGGGCGG [C8A A35U] | 0.477 |
| AACACUGCCAAGGCAGGUCCCAAGCCCGGAUAAAAGUGGAGGGGGCGG [U12G C15A] | 0.614 |
| AACACUGCCAAUGCCGGUCUCAAGCCCGGAUAAAAGUGGAGGGGGUGG [C20U C46U] | 0.969 |
| AACACUGCCAAUGCGGGUCCCAAGCCCGGAUAAAAGUGGAGGGGGCGA [C15G G48A] | 0.0877 |
| AACACUGCCAAUGCCGGUCCCAAGCCCGCAUAAAAGUGGAGGGGGGGG [G29C C46G] | 0.586 |
| AACACGGCCAAUGCCGGUCCCAAGCCCGGAUAAAAGUGGAGGUGGCGG [U6G G43U] | 0.184 |
| AACACUGCCAAUGCCGGUCCCAAGCCCGGAUAAAAGUGGAGGGUGCGU [G44U G48U] | 0.545 |
| AACACUGCCAAUGCCGGUCCCAACCCCGGAUAAAAGUGGAGUGGGCGG [G24C G42U] | 0.0759 |
| AACACUGCCAAUGCCGGUCCCAAGCCCGGAUAAACGUGGAGAGGGCGG [A35C G42A] | 0.32 |
| AACACUGCCAAUGCCGGUCCCGAGCCCGGAUAAAAGUGGAGGAGGCGG [A22G G43A] | 0.0968 |
| AAUACUGCCAAUGCCGGUCCCAAGCCCGGGUAAAAGUGGAGGGGGCGG [C3U A30G] | 0.422 |
| AACACUGCCAAUGCCGGUCCCAAGCCCGGAUUAAAGUGGCGGGGGCGG [A32U A40C] | 0.204 |
| AACACUGCCAAUGCCGGUCCCAAGACCGGAUAAAAGUGGAGGGGGUGG [C25A C46U] | 0.104 |
| AACACUGCCAAUGCCGUUCCCAAGCCCGGAUAAAAGUAGAGGGGGCGG [G17U G38A] | 0.206 |
| AACACUGCCAAUGCCGGUCCCAAUCCCGGAUAAAAGUGUAGGGGGCGG [G24U G39U] | 0.0828 |
| AACACUGCCAAUGCCCGUCCCAAGCCCGGAUAAAAGUGGAGGGGUCGG [G16C G45U] | 0.379 |
| AACACUGCCAAUGCCGGUCGCAAGCCCGCAUAAAAGUGGAGGGGGCGG [C20G G29C] | 0.0469 |
| AAUACUGACAAUGCCGGUCCCAAGCCCGGAUAAAAGUGGAGGGGGCGG [C3U C8A] | 0.17 |
| AACACUGCCAAUGCCGGUCCCAAGCCCGGAUAAAAGUGGAGUGGGCUG [G42U G47U] | 0.296 |
| AACACUGCCAAUGCCGGUCCCAAGCCCGGAUAAAAGUGGAGGUAGCGG [G43U G44A] | 0.722 |
| AACACUGCCAAUGCCGGUCCCAAGCCCGUCUAAAAGUGGAGGGGGCGG [G29U A30C] | 1.06 |
| AACACUGCCAAUGCCGGUCCCAAGCACGGAUAAAAGUGCAGGGGGCGG [C26A G39C] | 0.0938 |
| AACACUGCGAAUGCCGGUCCCAAGCCCGGAUAAAAGUGGAGGGGGCGA [C9G G48A] | 0.443 |
| AACACUGCCUAUGCCGGUCCCAAGGCCGGAUAAAAGUGGAGGGGGCGG [A10U C25G] | 0.194 |
